Molecular target: PI3Kdelta (Homo sapiens)
Construct: His (N); host or cells: SF9 insect cells (baculovirus)
Sequence (O00329 whole entry): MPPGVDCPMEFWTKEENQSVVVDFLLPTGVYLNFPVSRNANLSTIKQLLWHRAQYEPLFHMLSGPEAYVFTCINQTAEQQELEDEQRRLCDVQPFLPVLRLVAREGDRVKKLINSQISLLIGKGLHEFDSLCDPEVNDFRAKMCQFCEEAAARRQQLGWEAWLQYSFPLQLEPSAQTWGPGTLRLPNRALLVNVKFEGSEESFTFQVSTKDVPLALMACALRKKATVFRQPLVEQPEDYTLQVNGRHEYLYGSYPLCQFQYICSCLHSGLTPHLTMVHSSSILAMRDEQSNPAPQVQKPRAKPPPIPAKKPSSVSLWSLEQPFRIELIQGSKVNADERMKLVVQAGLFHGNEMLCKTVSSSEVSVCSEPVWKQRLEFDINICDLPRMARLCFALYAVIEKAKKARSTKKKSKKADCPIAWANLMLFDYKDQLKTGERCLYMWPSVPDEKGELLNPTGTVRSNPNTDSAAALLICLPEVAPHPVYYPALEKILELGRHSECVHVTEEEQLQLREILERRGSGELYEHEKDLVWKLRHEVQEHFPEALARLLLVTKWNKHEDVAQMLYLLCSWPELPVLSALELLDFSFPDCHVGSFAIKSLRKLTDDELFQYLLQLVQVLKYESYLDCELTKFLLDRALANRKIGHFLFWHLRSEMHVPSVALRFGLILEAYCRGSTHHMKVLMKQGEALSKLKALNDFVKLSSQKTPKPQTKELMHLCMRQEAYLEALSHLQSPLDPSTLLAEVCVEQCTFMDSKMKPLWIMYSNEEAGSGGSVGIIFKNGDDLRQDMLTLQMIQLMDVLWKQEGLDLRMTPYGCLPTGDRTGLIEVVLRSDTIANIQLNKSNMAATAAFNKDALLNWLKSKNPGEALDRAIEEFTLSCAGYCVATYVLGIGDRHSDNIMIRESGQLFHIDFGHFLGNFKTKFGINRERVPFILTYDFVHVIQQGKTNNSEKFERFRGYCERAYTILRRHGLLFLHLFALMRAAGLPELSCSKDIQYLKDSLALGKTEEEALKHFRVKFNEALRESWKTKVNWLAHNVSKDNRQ
Sequence (P27986 whole entry partner): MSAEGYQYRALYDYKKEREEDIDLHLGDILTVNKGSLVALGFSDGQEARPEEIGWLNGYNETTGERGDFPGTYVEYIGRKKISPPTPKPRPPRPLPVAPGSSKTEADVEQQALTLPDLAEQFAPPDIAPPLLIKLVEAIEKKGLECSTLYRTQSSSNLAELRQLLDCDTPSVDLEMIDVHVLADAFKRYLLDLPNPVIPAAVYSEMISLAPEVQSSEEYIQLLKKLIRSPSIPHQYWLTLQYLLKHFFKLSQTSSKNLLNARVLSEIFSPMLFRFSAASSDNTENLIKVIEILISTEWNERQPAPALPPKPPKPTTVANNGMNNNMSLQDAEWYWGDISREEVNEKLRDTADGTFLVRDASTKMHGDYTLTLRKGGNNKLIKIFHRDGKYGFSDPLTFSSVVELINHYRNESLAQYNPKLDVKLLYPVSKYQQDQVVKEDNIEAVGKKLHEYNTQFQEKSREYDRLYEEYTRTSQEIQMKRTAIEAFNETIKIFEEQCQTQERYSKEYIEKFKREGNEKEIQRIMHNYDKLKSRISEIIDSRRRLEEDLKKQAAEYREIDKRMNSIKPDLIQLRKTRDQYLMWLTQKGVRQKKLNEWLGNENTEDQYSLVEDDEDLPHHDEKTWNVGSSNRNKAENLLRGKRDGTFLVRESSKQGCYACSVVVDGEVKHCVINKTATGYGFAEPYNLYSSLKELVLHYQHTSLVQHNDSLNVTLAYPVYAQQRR
Assay: Human PI3K delta enzyme assay (HTRF, as for PI3K alpha)
Assay type: biochemical
Details: read-out: PI3Kdelta % inh
quantity: inhibition at 1.11 µM (%)

compound	inhibition at 1.11 µM [%]
O=C1CC(c2ccc(Cl)c(Cl)c2)c2cc(N3CCOCC3)sc21 (centres unmarked)	111
CN(C)C(=O)[C@@H]1NC(=O)c2sc(N3CCOCC3)cc2[C@H]1c1ccc(Cl)cc1	44.5
CC1(C)CNC(=O)c2sc(-c3ccncc3)cc2C1c1ccc(Cl)cc1 (centres unmarked)	67.9
CN1CCC(c2ccc(Cl)cc2)c2cc(N3CCOCC3)sc2C1=O (centres unmarked)	47.2
CC(=O)Nc1cc(-c2cc3c(s2)C(=O)NCCC3c2ccc(Cl)cc2)ccn1 (centres unmarked)	103
O=C1CCC(c2ccc(Cl)cc2)c2cc(-c3ccncc3)sc21 (single isomer, unassigned) [Compound 22]	44.5
N#Cc1c(N2CCOCC2)sc2c1C(c1ccc3ccccc3c1)CCNC2=O (centres unmarked)	110
CC(C)NC(=O)[C@@H]1NC(=O)c2sc(N3CCOCC3)cc2[C@H]1c1ccc(Cl)cc1	41.8

A = O=C1NCCC(c2ccc(Cl)cc2)c2cc(-c3ccncc3)sc21 (racemic)
B = CC(=O)Nc1cc(-c2cc3c(s2)C(=O)CCC3c2ccc(Cl)cc2)ccn1 (centres unmarked)
C = CN1CC(c2ccc(Cl)cc2)c2cc(-c3ccncc3)sc2C1=O (centres unmarked)
[Q] // sort entries: inhibition at 1.11 µM, high to low Note for the reader: the ranking is given by listing the labels in the order requested.
[A] B, A, C

P = CC1=CC(=O)Nc2sc(-c3ccncc3)cc2C1(C)c1ccc(Cl)cc1 (centres unmarked)
Q = N#Cc1c(N2CCOCC2)sc2c1C(c1c(F)cc(Cl)cc1F)CNC2=O (centres unmarked)
R = O=C1CC(c2ccc(Cl)cc2)c2cc(-c3ccncc3)sc21 (centres unmarked)
[Q] // sort entries: inhibition at 1.11 µM, high to low Note for the reader: the ranking is given by listing the labels in the order requested.
[A] Q, P, R

1 = O=C1NCC(c2ccc(Cl)cc2)c2nc(N3CCOCC3)sc21 (centres unmarked)
2 = O=C1NCCC(c2ccc(Cl)cc2)c2nc(N3CCOCC3)sc21 (centres unmarked)
[Q] Given the two records 1 and 2 , choose the one whose inhibition at 1.11 µM value is lower. The response must carry the label of the picked entry.
[A] 1
(1: 59.2%, 2: 87.3%)

a = N#Cc1c(N2CCOCC2)sc2c1C(c1ccc(Cl)cc1)CNC2=O (centres unmarked)
b = CCNC(=O)[C@@H]1NC(=O)c2sc(N3CCOCC3)cc2[C@H]1c1ccc(Cl)cc1
c = CC1(C)CC(=O)c2sc(-c3ccncc3)cc2C1c1ccc(Cl)cc1 (centres unmarked)
[Q] // sort entries: inhibition at 1.11 µM, high to low Note for the reader: the ranking is given by listing the labels in the order requested.
[A] a, b, c
